- Tested on: W1L2 cells
- assay_summary: Growth inhibition of W1L2 in presence of folate metabolites (dThd/HX)
- Type: cell-based, human
- reported_conditions: Homo sapiens; in the presence of 10 μM thymidine (dThd) and 50 μM hypoxantine (HX); read-out: Inhibition of Cell Growth IC50, W1L2 + dThd/HX (C)
- Method: Growth inhibition assays as described above were performed in W1L2 cells where compounds were incubated in the presence of 10 μM thymidine (dThd) and 50 μM hypoxantine (HX) (purchased from Sigma Chemical Co.).
measured_endpoint: pIC50
As a rule, pIC50 stands for the negative log10 of the concentration, concentration in M.

Incoming: Query: pIC50; subject: C#CCN(Cc1cc2c(=O)n(C)c(CN3CCCCC3)nc2cc1Cl)c1ccc(C(=O)NCc2cccnc2)cc1 [CB300923]
Outgoing: 9.11

Incoming: Query: pIC50; subject: C#CCN(Cc1cc2c(=O)[nH]c(C)nc2cc1Br)c1ccc(C(=O)NCc2cccnc2)cc1 [CB30865, reference compound]
Outgoing: 8.66

Incoming: Query: pIC50; subject: C#CCN(Cc1cc2c(=O)n(C)c(CN(CC)CC)nc2cc1Cl)c1ccc(C(=O)NCc2cccnc2)cc1 [CB300922]
Outgoing: 9.14

Incoming: Query: pIC50; subject: C#CCN(Cc1cc2c(=O)n(C)c(CN3CCCC3)nc2cc1Cl)c1ccc(C(=O)NCc2cccnc2)cc1 [CB300926]
Outgoing: 9.12

Incoming: Query: pIC50; subject: C#CCN(Cc1cc2c(=O)n(C)c(CN3CCN(C)CC3)nc2cc1Cl)c1ccc(C(=O)NCc2cccnc2)cc1 [CB300919]
Outgoing: 9.49

----------
For each entry below, report its melting point value.

Incoming: Query: melting point; subject: C#CCN(Cc1cc2c(=O)n(C)c(CN3CCN(CCO)CC3)nc2cc1Cl)c1ccc(C(=O)NCc2cccnc2)cc1 [CB300930]
Outgoing: 115 to 117 °C

Incoming: Query: melting point; subject: C#CCN(Cc1cc2c(=O)n(CC(=O)OC)c(CN3CCCCC3)nc2cc1Cl)c1ccc(C(=O)NCc2cccnc2)cc1 [CB300931]
Outgoing: 214 to 216 °C

Incoming: Query: melting point; subject: C#CCN(Cc1cc2c(=O)n(C)c(CN(CC)CC)nc2cc1Cl)c1ccc(C(=O)NCc2cccnc2)cc1 [CB300922]
Outgoing: 180 to 182 °C

----------
- assay_summary: Tolerability (weight loss, deaths, MTD) in nude mice
- reported_conditions: nude, mouse, in vivo, intraperitoneal
measured_endpoint: MTD at 3 days

Incoming: Query: MTD at 3 days; subject: `C#CCN(Cc1cc2c(=O)n(C)c(CN3CCN(C)CC3)nc2cc1Cl)c1ccc(C(=O)NCc2cccnc2)cc1`
Outgoing: 0.5 to 0.75 mg/kg/day

----------
For each entry below, report its IC50 value.
- Test system: W1L2:R865 cell line
- assay_summary: Growth inhibition of W1L2:R865 cells (acquired resistance to CB 30865)
- Assay type: cell-based, human
- reported_conditions: read-out: Inhibition of Cell Growth IC50, W1L2:R865 (D); 72 h growth inhibition assay (Coulter counts)
I only need the number, in µM, no unit after it.

Incoming: Query: IC50; subject: C#CCN(Cc1cc2c(=O)n(C)c(CN3CCN(C)CC3)nc2cc1Cl)c1ccc(C(=O)NCc2cccnc2)cc1 [CB300919]
Outgoing: 13

Incoming: Query: IC50; subject: C#CCN(Cc1cc2c(=O)n(C)c(CN3CCN(CCO)CC3)nc2cc1Cl)c1ccc(C(=O)NCc2cccnc2)cc1 [CB300930]
Outgoing: 19

Incoming: Query: IC50; subject: C#CCN(Cc1cc2c(=O)n(C)c(CN3CCN(C)CC3)nc2cc1Cl)c1ccc(C(=O)NCCCn2ccnc2)cc1 [CB300929]
Outgoing: 14

Each recorded value in this set is attributed to patent US6699861B1.
